Procedure summary: Binding affinity to Trypanosoma cruzi farnesyl diphosphate synthase at 250 uM at 28 degC by isothermal titration calorimetry
Attribute: pKd
// pKd is dimensionless: -log10 of concentration (M)

> print(dat)
                    entry.smiles  observed.value
1   CCCCCNCC(P(=O)(O)O)P(=O)(O)O            5.99
2  CCCCCCNCC(P(=O)(O)O)P(=O)(O)O            6.40
3     CCCNCC(P(=O)(O)O)P(=O)(O)O            7.60

Okay, next one:
Query: Fill in the blank: the reported pKd of CCCCCCCNCC(P(=O)(O)O)P(=O)(O)O is ____.
Reply: 7.23
